Cited source: patent US20220144956A1

Molecular target: human TGFßRII (antigen of the Octet experiments) (human, UniProt P37173 23-166)
Sequence (P37173 23-166): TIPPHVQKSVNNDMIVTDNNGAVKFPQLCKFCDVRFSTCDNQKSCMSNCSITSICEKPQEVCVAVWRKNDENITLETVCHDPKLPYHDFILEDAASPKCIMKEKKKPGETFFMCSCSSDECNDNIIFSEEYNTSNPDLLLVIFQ
quantity_measured: Kd (nM)

binder="XENP36166 H1.183 L1 (antibody, V domains shown) VH: QLQVQESGPGLVKPSETLSLTCTVSGGSISNSYFSWGWIRQPPGKGLEWIGSFYYGGKTYYNPSLKSRATISIDTSKNQFSLKLSSVTAADTAVYYCARGPTMIRGVFDSWGQGTLVTVSS VL: EIVLTQSPATLSLSPGERATLSCRASQSVRSYLAWYQQKPGQAPRLLIYDASNRATGIPARFSGSGSGTDFTLTISSLEPEDFAVYYCQQRSNWPPTFGQGTKVEIK" reported=6.15
binder="XENP36173 H1.190 L1 (antibody, V domains shown) VH: QLQVQESGPGLVKPSETLSLTCTVSGGSISSSYFSWGWIRQPPGKGLEWIGSFYYGGKTYYNPSLKSRATISIDTSKNQFSLKLSSVTAADTAVYYCARGPTTIRGVIDSWGQGTLVTVSS VL: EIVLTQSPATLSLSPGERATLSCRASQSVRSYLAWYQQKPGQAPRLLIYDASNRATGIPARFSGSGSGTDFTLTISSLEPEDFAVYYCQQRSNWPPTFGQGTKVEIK" reported=9.24
